All values here come from patent US20020177126A1.

Biological target: F protein of wild type RSV A/Long (respiratory syncytial virus, strain …, UniProt P12568 26-574)
Sequence (P12568 26-574): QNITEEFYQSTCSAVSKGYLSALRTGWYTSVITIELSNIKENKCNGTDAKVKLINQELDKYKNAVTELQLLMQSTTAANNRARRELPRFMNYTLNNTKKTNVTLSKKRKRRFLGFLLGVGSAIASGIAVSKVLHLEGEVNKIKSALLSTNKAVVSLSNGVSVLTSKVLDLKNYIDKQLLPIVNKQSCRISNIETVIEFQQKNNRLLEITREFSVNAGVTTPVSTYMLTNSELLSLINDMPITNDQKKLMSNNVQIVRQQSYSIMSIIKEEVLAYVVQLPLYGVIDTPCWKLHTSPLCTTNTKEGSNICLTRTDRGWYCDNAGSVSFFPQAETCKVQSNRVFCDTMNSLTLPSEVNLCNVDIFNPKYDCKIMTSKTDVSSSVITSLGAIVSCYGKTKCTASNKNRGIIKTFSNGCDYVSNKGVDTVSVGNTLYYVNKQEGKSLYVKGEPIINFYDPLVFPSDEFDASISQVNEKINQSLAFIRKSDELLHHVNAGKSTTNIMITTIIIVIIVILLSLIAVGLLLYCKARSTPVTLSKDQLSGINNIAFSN
Assay: cell-based or functional assay
Fold Difference (Curve IC50) values for the binders below.
Give your result in fold as a bare value.

{"BINDER": "A4B4 (monoclonal antibody) (antibody, V domains shown, also called A4B4/A4B4 (HC/LC)) VH: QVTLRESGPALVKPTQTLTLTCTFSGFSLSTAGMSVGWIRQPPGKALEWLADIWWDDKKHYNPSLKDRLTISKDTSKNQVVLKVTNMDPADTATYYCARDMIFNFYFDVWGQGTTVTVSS VL: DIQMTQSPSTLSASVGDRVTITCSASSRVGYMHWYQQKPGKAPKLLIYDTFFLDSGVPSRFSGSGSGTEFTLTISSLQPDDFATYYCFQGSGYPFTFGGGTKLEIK", "Fold Difference (Curve IC50) / fold": 27}

Alright, here's another binder for you.
Item under review: A12a6 (monoclonal antibody) (antibody, V domains shown) VH: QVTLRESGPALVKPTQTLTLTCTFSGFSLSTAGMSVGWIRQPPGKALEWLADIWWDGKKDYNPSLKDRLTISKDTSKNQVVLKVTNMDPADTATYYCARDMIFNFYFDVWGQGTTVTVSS VL: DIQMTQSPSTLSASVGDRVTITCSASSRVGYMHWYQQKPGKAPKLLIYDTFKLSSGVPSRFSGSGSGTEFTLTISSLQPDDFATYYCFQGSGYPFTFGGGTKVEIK . Reported Fold Difference (Curve IC50)?
13
